Tested on: SF-539 CNS
assay-info: NCI tumour cell line growth inhibition, 48 h
Where a SMILES comes first, the peptide text is derived from it. The star is where a group is joined. Trt = c1ccc(C(c2ccccc2)(c2ccccc2)*)cc1; Cbz = O=C(OCc1ccccc1)*
assay-metric: TGI

// each molecule listed below needs its TGI
1. CC(C(N)=O)N(C)C(=O)c1cnc2ccccc2c1 (stereo unspecified)
2. O=c1cc(N2CCCC2)[nH]c(=O)n1-c1ccc(Cl)cc1
3. CC(=O)NC1C(OCc2ccccc2)OC(CO)C(O)C1OCC(=O)N[C@@H](C)C(=O)N[C@H](CCC(=O)NCCCNc1ccc([N+](=O)[O-])c2[nH]c3ccccc3c(=O)c12)C(N)=O (stereo partly specified)
4. Cc1ccc2nc(NC(=O)C(=O)CC(=O)c3cccc4ccccc34)sc2c1
5. O=S1(=O)c2ccccc2N=C(c2ccccc2Cl)CC1c1ccc(F)cc1 (stereo unspecified)
6. COc1ccc(-c2n/c(=C\c3c(O)[nH]c4ccccc34)cc3c2=Nc2ccccc2-3)cc1
7. CC1(C)CC(=O)C2=C(C1)OC1(CC2c2ccc(Cl)cc2)CC(c2ccc(Cl)cc2)C2=C(CC(C)(C)CC2=O)O1 (stereo unspecified)
8. Clc1cc2nnn(C3CCCO3)c2cc1Cl (stereo unspecified)

["> 100 µM", "> 100 µM", "> 100 µM", "61.6 µM", "35.7 µM", "3.31 µM", "> 51.3 µM", "> 100 µM"]

# map each molecule to its TGI
1. COC(=O)C(C(=O)C(N)=O)c1csc(-n2nc(-c3ccccc3)cc2-c2ccccc2)n1 (stereo unspecified)
2. CC(C)N1C(C)[C@@H](c2ccccc2)O[P@]1(=O)CC1=CCCCC1 (stereo partly specified)
3. O=c1[nH]cc(C(F)(C(F)(F)F)C(F)(F)F)c(=O)[nH]1
4. CC(/C=N/N=C(N)N)=N\N=C(N)N
5. CC(C)(C)Sc1nnc(SC(C)(C)C)c2c(=O)[nH]nc(SC(C)(C)C)c12

1. > 31.6 µM
2. > 100 µM
3. > 100 µM
4. 103 µM
5. 22.6 µM

// each listed molecule needs a value for TGI
1. CN(C)CCNC(=O)c1c(O)ccc2c1c1c(n2CCc2ccccc2)C(=O)c2ccccc2C1=O
2. COC(=O)C(CSC(c1ccccc1)(c1ccccc1)c1ccccc1)NC(=O)C(CC(N)=O)NC(=O)OCc1ccccc1 (stereo not drawn) (Cbz-Asn-Cys(Trt)-OMe; configuration not given here)
3. O=C(CCCCCCCCC(=O)N/N=C\c1cc(Cl)ccc1O)N/N=C\c1cc(Cl)ccc1O
4. O=C(/C=C/C1C(=O)NC(=O)NC1=O)CC(=O)C(=O)Nc1cc(Cl)c(Cl)cc1Cl
5. CCOC(=O)Cn1c(=O)c(C)cn(COCCO)c1=O
6. CC(C)[Si](OCC1CC(C#N)OC(C)(C)O1)(C(C)C)C(C)C (stereo unspecified)
7. COc1ccc(C2=Nc3c/c(=C\c4c(O)[nH]c5cc(Cl)ccc45)ccc3=N2)cc1

1. 11.1 µM
2. 5.49 µM
3. > 46.8 µM
4. > 100 µM
5. > 100 µM
6. 79 µM
7. 28 µM

----------
Please go through the items and note down their TGI.
Tested on: UACC-257 melanoma
assay-info: NCI tumour cell line growth inhibition, 48 h

* CC(C)NC(=O)OCc1c(COC(=O)NC(C)C)c(-c2cc[n+](COC(=O)C3CCCCC3)cc2)n2c1CCC2 | > 100 µM

Would you mind listing TGI for each of the following compounds?
1. O=C(C=C=Nc1ccccc1)C(=O)N=C=Cc1ccccc1
2. FC(F)(F)c1ccc2nc(Sc3ccc4ccccc4c3)cnc2c1
3. CC1=CC(=O)NP(=O)(C23CC4CC(CC(C4)C2)C3)N1 (stereo unspecified)

["5.56 µM", "> 100 µM", "> 100 µM"]

Parameters: items (list). Returns: TGI for each item.
1. COc1ccc(C2=NC(c3ccc(Cl)cc3)C(c3ccc(Cl)cc3)N2C(=O)N2CCNC(=O)C2)c(OC(C)C)c1 (stereo unspecified)
2. O=c1[nH]cc(C(F)(C(F)(F)F)C(F)(F)F)c(=O)[nH]1

1: 4.84 µM; 2: > 100 µM
